The origin of these recorded values is PubChem BioAssay (NCI).

# reported TGI; entries follow
# Tested on: K-562 leukemia
# protocolText: NCI tumour cell line growth inhibition, 48 h

So, `O=C(O)CCCCCCC[C@H]1S[C@H]1CCCCCCO` ? Its TGI was > 100 µM

So, `O=C(/N=C/c1c(O)c2ccccc2oc1=O)Nc1ccccc1` ? Its TGI was > 100 µM

So, `CN(C)CC(C)(C)/C(=N\Nc1ccccc1)c1ccccc1` ? Its TGI was > 100 µM

---

# Tested on: MOLT-4 leukemia
# protocolText: NCI tumour cell line growth inhibition, 48 h
# reported TGI; entries follow

{"columns": ["compound", "result"],
 "data": [
  ["CN(C)CCNC(=O)c1cccc2c(NCCN(C)C)c3ccccc3nc12", "6.29 µM"],
  ["COc1ccc2c(C)cc(N/N=C/c3ccc(OC)c4ccccc34)nc2c1", "52.9 µM"],
  ["Nc1ncnc2c1nnn2C1C=CC(COS(N)(=O)=O)C1 (stereo unspecified)", "> 100 µM"],
  ["O=c1[nH]c(=O)n(C2OC(COP(=O)(O)OP(=O)(O)OC3OC(CO)C(O)C(O)C3O)C(O)C2O)cc1F (stereo unspecified)", "> 100 µM"]
]}

So, `Cc1c(Cl)nc(Nc2nc3ccccc3[nH]2)nc1Cl` ? Its TGI was > 100 µM

So, `c1cc(N(CCn2cccn2)CCn2cccn2)cc(N(CCn2cccn2)CCn2cccn2)c1` ? Its TGI was > 100 µM

---

# reported TGI; entries follow
# Test system: SR leukemia
# protocolText: NCI tumour cell line growth inhibition, 48 h

Example molecules with recorded TGI:
{"columns": ["molecule", "target", "endpointLabel", "result"],
 "data": [
  ["CCOC(=O)c1sc(-c2ccc(OS(=O)(=O)c3ccc(Br)s3)c(C=O)c2)nc1C", "SR leukemia", "TGI", "> 100 µM"],
  ["Cc1cnc2sn(-c3ccc(Oc4ccccc4)cc3)c(=O)c2c1", "SR leukemia", "TGI", "44 µM"],
  ["CCCC(=O)NC1=C(Cl)C(=O)c2ccccc2C1=O", "SR leukemia", "TGI", "6.31 µM"],
  ["COC(=O)/C(=C\\Nc1cccc(C)n1)S(=O)(=O)c1ccc(C)cc1", "SR leukemia", "TGI", "> 100 µM"],
  ["Oc1[nH]c2ccccc2c1N=Nc1ccccn1", "SR leukemia", "TGI", "47.6 µM"],
  ["COc1cccc(-c2nc3sccn3c2-c2ccnc(NCCCNS(=O)(=O)c3cccc(F)c3)c2)c1", "SR leukemia", "TGI", "> 100 µM"],
  ["S=C(NC1=NCC(CN2CCN(c3ccccc3)CC2)O1)Nc1ccccc1 (stereo not drawn)", "SR leukemia", "TGI", "> 100 µM"],
  ["COc1ccc(C(=O)/C=C/c2ccc(C)cc2)cc1OC", "SR leukemia", "TGI", "6.83 µM"]
]}

# input for lookup
Assay SR leukemia, sample `COc1ccc2c(C)cc(N/N=C/c3ccc(OC)c4ccccc34)nc2c1` , TGI read: 22.3 µM

---

# Tested on: NCI-H522 lung
# protocolText: NCI tumour cell line growth inhibition, 48 h
# reported TGI; entries follow

Example compounds with recorded TGI:
{"columns": ["compound", "target", "TGI"],
 "data": [
  ["O=C1c2ccccc2C(Br)(Br)c2ccccc21", "NCI-H522 lung", "> 31.6 µM"],
  ["CC[C@]12C=CCN3CC[C@@]4(c5cc(Br)c(OC)cc5N(C)[C@H]4[C@@](O)(C(=O)NN)[C@@H]1O)[C@@H]32", "NCI-H522 lung", "> 100 µM"],
  ["CN1CCCC2(CCCc3ccccc32)C1 (stereo unspecified)", "NCI-H522 lung", "> 100 µM"],
  ["CCOc1ccc2nc(SCc3nc4n(n3)S(=O)(=O)c3ccccc3N4C)sc2c1", "NCI-H522 lung", "> 100 µM"],
  ["[N-]=[N+]=C1N=CN=C1c1ncn[nH]1", "NCI-H522 lung", "> 100 µM"]
]}

# input for lookup
So, `O=C1c2ccc(O)cc2C(=O)c2ccc(O)cc21` ? Its TGI was > 100 µM
